Target: T1, monkey C5-mmh (monkey, UniProt P01031 19-1676 (human entry), limits assumed)
T1 construct: Recombinant monkey C5 with a C-terminal myc-myc-hexahistidine tag
T1 chain: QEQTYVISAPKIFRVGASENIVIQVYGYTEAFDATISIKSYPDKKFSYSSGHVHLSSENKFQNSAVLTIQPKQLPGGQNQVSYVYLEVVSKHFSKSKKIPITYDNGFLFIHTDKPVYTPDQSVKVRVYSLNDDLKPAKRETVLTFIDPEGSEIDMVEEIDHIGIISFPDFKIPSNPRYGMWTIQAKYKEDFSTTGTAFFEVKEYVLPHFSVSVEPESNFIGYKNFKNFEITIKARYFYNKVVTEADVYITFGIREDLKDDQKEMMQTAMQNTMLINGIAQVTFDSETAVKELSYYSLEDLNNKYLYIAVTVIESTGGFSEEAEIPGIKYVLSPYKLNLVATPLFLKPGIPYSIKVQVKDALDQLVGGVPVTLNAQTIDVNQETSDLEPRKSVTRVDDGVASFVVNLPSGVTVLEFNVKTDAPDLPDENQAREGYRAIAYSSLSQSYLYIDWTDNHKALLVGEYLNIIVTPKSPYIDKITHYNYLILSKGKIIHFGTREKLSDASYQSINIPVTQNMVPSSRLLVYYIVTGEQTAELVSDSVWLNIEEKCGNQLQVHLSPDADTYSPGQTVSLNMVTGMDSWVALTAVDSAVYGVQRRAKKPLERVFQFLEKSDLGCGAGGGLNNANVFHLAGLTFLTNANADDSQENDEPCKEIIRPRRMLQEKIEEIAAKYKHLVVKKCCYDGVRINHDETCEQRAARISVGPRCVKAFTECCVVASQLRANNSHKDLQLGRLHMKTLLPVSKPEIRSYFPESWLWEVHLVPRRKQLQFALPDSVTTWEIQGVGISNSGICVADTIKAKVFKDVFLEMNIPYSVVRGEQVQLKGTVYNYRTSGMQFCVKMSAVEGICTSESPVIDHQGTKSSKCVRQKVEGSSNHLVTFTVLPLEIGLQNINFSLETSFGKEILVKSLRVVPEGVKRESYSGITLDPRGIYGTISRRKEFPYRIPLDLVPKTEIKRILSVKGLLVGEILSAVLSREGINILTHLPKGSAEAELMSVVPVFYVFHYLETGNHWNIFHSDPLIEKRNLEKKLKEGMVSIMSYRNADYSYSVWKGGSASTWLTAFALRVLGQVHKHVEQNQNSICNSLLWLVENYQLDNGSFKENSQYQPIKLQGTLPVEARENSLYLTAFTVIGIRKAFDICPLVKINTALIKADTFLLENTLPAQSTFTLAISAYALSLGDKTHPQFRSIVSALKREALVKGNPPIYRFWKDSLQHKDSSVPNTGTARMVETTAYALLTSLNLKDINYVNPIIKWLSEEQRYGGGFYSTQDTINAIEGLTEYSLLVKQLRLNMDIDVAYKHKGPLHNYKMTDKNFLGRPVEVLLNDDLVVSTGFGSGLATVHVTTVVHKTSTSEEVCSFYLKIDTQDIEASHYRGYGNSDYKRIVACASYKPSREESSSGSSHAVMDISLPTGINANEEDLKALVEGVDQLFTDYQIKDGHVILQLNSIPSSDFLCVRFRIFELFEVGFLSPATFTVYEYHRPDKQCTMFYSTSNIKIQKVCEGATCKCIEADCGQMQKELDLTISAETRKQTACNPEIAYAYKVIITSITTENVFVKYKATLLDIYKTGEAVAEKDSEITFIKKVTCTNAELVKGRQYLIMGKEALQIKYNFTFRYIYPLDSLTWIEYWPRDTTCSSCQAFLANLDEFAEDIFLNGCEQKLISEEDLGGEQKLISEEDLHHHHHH
Assay: SPR, mAb captured via anti-hFc, 37C
koff values, listed per item
readout: koff (s⁻¹)

>>> reportedmeasurement("H4H12163P (antibody, human IgG4, V domains shown, Human IgG4 Fc with S108P hinge mutation (H4H)) VH: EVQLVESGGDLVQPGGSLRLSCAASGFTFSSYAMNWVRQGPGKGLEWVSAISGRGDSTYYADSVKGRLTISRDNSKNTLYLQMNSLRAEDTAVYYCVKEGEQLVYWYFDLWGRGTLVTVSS VL: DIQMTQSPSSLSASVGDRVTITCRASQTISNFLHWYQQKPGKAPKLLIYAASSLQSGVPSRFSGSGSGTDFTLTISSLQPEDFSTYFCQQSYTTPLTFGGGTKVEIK")
0.00125
>>> reportedmeasurement("H4H12166P8 (antibody, human IgG4, V domains shown, Histidine-mutated CDR variant of H4H12166P; human IgG4 Fc with S108P) VH: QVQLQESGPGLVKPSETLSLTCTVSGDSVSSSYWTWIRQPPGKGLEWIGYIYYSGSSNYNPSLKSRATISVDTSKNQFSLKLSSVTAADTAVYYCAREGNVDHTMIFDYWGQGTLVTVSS VL: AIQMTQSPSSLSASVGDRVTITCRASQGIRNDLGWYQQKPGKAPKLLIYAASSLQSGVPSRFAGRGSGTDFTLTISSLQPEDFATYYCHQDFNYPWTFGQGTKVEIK")
0.00269
